Cited source for all entries: ChEMBL document CHEMBL3797100

test: Selectivity index, ratio of CC50 for human MT4 cells to EC50 for HIV-1 3B infected in human MT4 cells; assay type: toxicity, cell-based; details: MT4 cells (uninfected for CC50; HIV-1 3B infected for EC50)
Assignment: determine reported selectivity ratio for the given compounds.

// sample Cc1ccc(COCc2c(Br)c(=O)[nH]c(=O)n2COCc2ccccc2)cc1 , its selectivity ratio was < 1

// sample O=c1[nH]cnc2c1ncn2[C@H]1CC[C@@H](CO)O1 [DIDANOSINE] , its selectivity ratio was > 9

// sample O=c1[nH]c(=O)n(COCc2ccccc2)c(COCc2ccc(Cl)cc2)c1Br , its selectivity ratio was < 1

// sample Cc1cn([C@H]2C[C@H](N=[N+]=[N-])[C@@H](CO)O2)c(=O)[nH]c1=O [ZIDOVUDINE] , its selectivity ratio was > 13200

----------
assay: Selectivity index, ratio of CC50 for human MT4 cells to EC50 for HIV-1 3B infected in human MT4 cells; format: toxicity, cell-based; conditions: MT4 cells (uninfected for CC50; HIV-1 3B infected for EC50)
Assignment: determine reported selectivity ratio for the given compounds.

// sample O=c1[nH]c(=O)n(COCc2ccccc2)c(COCc2ccccc2)c1I , its selectivity ratio was ≤ 4

// sample Nc1ccn([C@H]2CS[C@@H](CO)O2)c(=O)n1 , its selectivity ratio was > 39

// sample CC(OCn1c(COCc2ccccc2)cc(=O)[nH]c1=O)c1ccccc1 (stereo not drawn) , its selectivity ratio was < 1

----------
test: Cytotoxicity against human MT4 cells after 5 days MTT assay; assay type: cell-based
Assignment: determine reported CC50 at 120 h for the given compounds.

// sample Cc1cc(C#N)cc(C)c1Oc1nc(Nc2ccc(C#N)cc2)nc(N)c1Br [ETRAVIRINE] , its CC50 at 120 h was > 4.5 µM

// sample O=C1Nc2ccc(Cl)cc2[C@@](C#CC2CC2)(C(F)(F)F)O1 [EFAVIRENZ] , its CC50 at 120 h was > 6.3 µM

// sample Nc1ccn([C@H]2CS[C@@H](CO)O2)c(=O)n1 , its CC50 at 120 h was > 87 µM

// sample Cc1cn([C@H]2C[C@H](N=[N+]=[N-])[C@@H](CO)O2)c(=O)[nH]c1=O [ZIDOVUDINE] , its CC50 at 120 h was > 99 µM
